Tested on: gram-negative bacteria
assay.comment: Rapid bactericidal effect of perfume ingredients (example 1, Mueller-Hinton broth, most probable number method)
Type: cell-based
test.settings: 30 s contact time; 0.1% or 0.2% (w/v) in Mueller-Hinton broth
reported.property: rapid (30 s) bactericidal activity on gram-negative bacteria (class)

# compound, test.value
measured = [
    ("CC(C)=CCC/C(C)=C/COC=O [Geranyl-formiate]", "without activity"),
    ("CC(C)=CCCC(C)CCOC=O (stereo not shown) [citronellyl-formiate]", "without activity"),
    ("C=CC(C)(CCC=C(C)C)OC=O (stereo not shown) [linalyl-formiate]", "without activity"),
    ("CC(=O)OCCC(C)CCC=C(C)C (stereo not shown) [citronellyl-actetate]", "without activity"),
]
